tested on: Human breast carcinoma cells (T47D); test: MTT growth inhibition of T47D; type: cell-based; conditions: 96 h, 4 days, read-out: IG50 T47D
pIC50: −log10 of the molar value.
Rule: y for pIC50 not less than 5, n for anything less.

Before answering, review these 2 worked examples.
FC(F)(F)c1cccc(Nc2nnnc3ccc(Cl)nc23)c1 : y
COc1cc2c(Nc3ccc(F)c(Cl)c3)nnnc2cc1OCCCCl : y

Test whether the molecule "CCCCOc1cc2nnnc(Nc3ccc(C)cc3)c2cc1OC" records pIC50 of 5 or higher.
n

Please tell me: is the molecule "FC(F)(F)Oc1cccc(Nc2nnnc3ccc(Cl)nc23)c1" at or over 5 in terms of pIC50?
y

Quick check, pIC50 >= 5? Clc1ccc(Nc2nnc(Cc3ccncc3)c3ccccc23)cc1 [PTK787, Vatalanib succinate, reference compound]
n
